Tested on: C. albicans ATCC90028
assay_text: Antifungal activity (GI80), growth inhibition in YPD20 medium by absorbance at 600 nm
Assay type: cell-based
cond: minimum concentration for at least 80% cell growth inhibition, 37° C., absorbance 600 nm
quantity_measured: GI80 (μg/ml) C. albicans ATCC90028 (µg/mL)
Write the value in µg/mL as a bare number.

Query :: Give GI80 (μg/ml) C. albicans ATCC90028 (C. albicans ATCC90028) of the following compound: CN[C@H]1CCN(c2c(-c3csc(C)n3)c(C)c(C#N)c3nc(C(=O)N(C)C)oc23)C1 [Example 52]
Result :: 1

Query :: Please state recorded GI80 (μg/ml) C. albicans ATCC90028 (tested on C. albicans ATCC90028) of Cc1c(-c2ccccc2)c(N2CC[C@H](N(C)C)C2)c2oc([C@@H]3C[C@H]3C(=O)N(C)C)nc2c1C#N (relative stereo)
Result :: 0.125

Query :: // lookup GI80 (μg/ml) C. albicans ATCC90028 | system=C. albicans ATCC90028 | key= CNC[C@H]1CCN1c1c(-c2ccccc2)c(C)c(C#N)c2nc(C(=O)N(C)C)oc12
Result :: 0.5

Query :: Provide the documented GI80 (μg/ml) C. albicans ATCC90028 with C. albicans ATCC90028 as the system for Cc1c(-c2ccccc2)c(N2CC[C@H](N(C)C)C2)c2oc(N3CCCC3=O)nc2c1C#N
Result :: 0.25

###

System: C. albicans ATCC90028
assay_text: Antifungal activity (GI80), growth inhibition in YPD20 medium by absorbance at 600 nm
Assay type: cell-based
cond: minimum concentration for at least 80% cell growth inhibition, 37° C., absorbance 600 nm
Give measured GI80 (μg/ml) C. albicans ATCC90028 for each item. Keep answers brief.
Expressed in µg/mL, but write only the number.

Query :: Reported GI80 (μg/ml) C. albicans ATCC90028, compound CN[C@H]1CCN(c2c(-c3csc(C)n3)c(C)c(C#N)c3nc(C(=O)N(C)C)oc23)C1 [Example 158] : ____
Result :: 0.5

Query :: Give the measured GI80 (μg/ml) C. albicans ATCC90028 of CC(=O)NC1CN(c2nc3c(C#N)c(C)c(-c4ccccc4)c(N4CC[C@H](N(C)C)C4)c3o2)C1 .
Result :: 0.5

###

Test system: C. albicans ATCC MYA-573
assay_text: Antifungal activity (GI80), growth inhibition in YPD20 medium by absorbance at 600 nm
Type: cell-based
cond: minimum concentration for at least 80% cell growth inhibition, 37° C., absorbance 600 nm
quantity_measured: GI80 (μg/ml) C. albicans ATCC MYA-573
Number first, unit second: that is the form wanted.

Query :: GI80 (μg/ml) C. albicans ATCC MYA-573 for Cc1c(-c2ccccc2)c(N2CC[C@H](N(C)C)C2)c2oc(N3CCCC3=O)nc2c1C#N ?
Result :: 0.5 µg/mL

Query :: // GI80 (μg/ml) C. albicans ATCC MYA-573 lookup, key: CN[C@H]1CCN(c2c(-c3csc(C)n3)c(C)c(C#N)c3nc(C(=O)N(C)C)oc23)C1 [Example 158]
Result :: 2 µg/mL

Query :: Param item = CNC[C@H]1CCN1c1c(-c2ccccc2)c(C)c(C#N)c2nc(C(=O)N(C)C)oc12 ; retrieve measured GI80 (μg/ml) C. albicans ATCC MYA-573.
Result :: 2 µg/mL

Query :: Find the recorded GI80 (μg/ml) C. albicans ATCC MYA-573 belonging to CC(=O)NC1CN(c2nc3c(C#N)c(C)c(-c4ccccc4)c(N4CC[C@H](N(C)C)C4)c3o2)C1 and report it.
Result :: 0.5 µg/mL

Query :: Please give the measured GI80 (μg/ml) C. albicans ATCC MYA-573 for this molecule: CN[C@H]1CCN(c2c(-c3csc(C)n3)c(C)c(C#N)c3nc(C(=O)N(C)C)oc23)C1 [Example 52]
Result :: 1 µg/mL

Query :: Entry under review: Cc1c(-c2ccccc2)c(N2CC[C@H](N(C)C)C2)c2oc([C@@H]3C[C@H]3C(=O)N(C)C)nc2c1C#N (relative stereo) . Reported GI80 (μg/ml) C. albicans ATCC MYA-573?
Result :: 0.125 µg/mL

Query :: Query (molecule): CCC(C)n1ncn(-c2ccc(N3CCN(c4ccc(OCC5COC(Cn6cncn6)(c6ccc(Cl)cc6Cl)O5)cc4)CC3)cc2)c1=O (stereo not shown) [ITZ, Itraconazole, reference compound] ; field requested: GI80 (μg/ml) C. albicans ATCC MYA-573
Result :: 0.125 µg/mL
